Biological target: SARS-CoV-2 Papain-like (PLpro) protease (Severe acute respiratory syndrome coronavirus 2, UniProt P0DTD1)
Test: SARS-CoV-2 Papain-like (PLpro) protease biochemical enzyme inhibition assay (ubiquitin-fluorophore substrate, Ub-R110)
Details: Ub-R110 substrate; run in duplicate; read-out: PLpro IC50
recorded_metric: IC50

[[record]]
item_smiles = "COc1cc(C2(NC(=O)c3ccccc3CNC(=O)C(=O)NC[C@@H]3CCN3)CC2)cc2cn(C3CC3)nc12"
recorded_metric = "IC50"
data_value = "1000 to 10000 nM"

[[record]]
item_smiles = "N#CCNC(=O)C(=O)NCc1ccccc1C(=O)NC1(c2cccc(C(F)(F)F)c2F)CC1"
recorded_metric = "IC50"
data_value = "100 to 1000 nM"

[[record]]
item_smiles = "N#CCNC(=O)C(=O)NCc1ccccc1C(=O)NC1(c2cccc3nc(Cl)ccc23)CC1"
recorded_metric = "IC50"
data_value = "< 100 nM"

[[record]]
item_smiles = "C#C[C@H](C)NC(=O)C(=O)NCc1ccccc1C(=O)NC1(c2cccc3ccccc23)CC1"
recorded_metric = "IC50"
data_value = "< 100 nM"

[[record]]
item_smiles = "N#CCNC(=O)C(=O)NCc1ccccc1C(=O)NC1(c2cc(-c3cnn(CC(F)F)c3)cc3ccccc23)CC1"
recorded_metric = "IC50"
data_value = "< 100 nM"

[[record]]
item_smiles = "N#CCNC(=O)C(=O)NCc1ccccc1C(=O)NC1(c2cccc(Br)c2F)CC1"
recorded_metric = "IC50"
data_value = "100 to 1000 nM"

[[record]]
item_smiles = "Cc1nn(C)c(C)c1-c1cc(F)c(F)c(C2(NC(=O)c3ccccc3CNC(=O)C(=O)NCC#Cc3nccs3)CC2)c1"
recorded_metric = "IC50"
data_value = "< 100 nM"

[[record]]
item_smiles = "C#CCNC(=O)C(=O)NCc1ccccc1C(=O)NC1(c2cccc3nn(C)cc23)CC1"
recorded_metric = "IC50"
data_value = "< 100 nM"

[[record]]
item_smiles = "C[C@@H](NC(=O)c1ccccc1CNC(=O)C(=O)NCCC#N)c1cccc2ccccc12"
recorded_metric = "IC50"
data_value = "> 10000 nM"

[[record]]
item_smiles = "COc1ccc(C2(NC(=O)c3ccccc3CNC(=O)C(=O)NCC#Cc3nccs3)CC2)cc1-c1cnn(C2CC2)c1"
recorded_metric = "IC50"
data_value = "< 100 nM"

[[record]]
item_smiles = "COC(=O)/C=C/CNC(=O)C(=O)Nc1ccccc1C(=O)N[C@H](C)c1cccc2ccccc12"
recorded_metric = "IC50"
data_value = "> 10000 nM"

[[record]]
item_smiles = "N#CCNC(=O)C(=O)NCc1ccccc1C(=O)NC1(c2ccc(F)c(-c3cnn(C4CC4)c3)c2)CC1"
recorded_metric = "IC50"
data_value = "< 100 nM"

[[record]]
item_smiles = "Cc1n[nH]c(C)c1-c1cc(C(F)(F)F)cc(C2(NC(=O)c3ccccc3CNC(=O)C(=O)NCC#N)CC2)c1"
recorded_metric = "IC50"
data_value = "100 to 1000 nM"

[[record]]
item_smiles = "O=C(NCC#CC1CC1)C(=O)NCc1ccccc1C(=O)NC1(c2ccc3ccccc3c2)CC1"
recorded_metric = "IC50"
data_value = "> 10000 nM"

[[record]]
item_smiles = "O=C(NC/C=C/S(=O)(=O)c1ccccc1)C(=O)NCc1ccccc1C(=O)NC1(c2ccc3ccccc3c2)CC1"
recorded_metric = "IC50"
data_value = "< 100 nM"

[[record]]
item_smiles = "N#CN1CCC[C@@H]1CNC(=O)C(=O)NCc1ccccc1C(=O)NC1(c2cccc3ccccc23)CC1"
recorded_metric = "IC50"
data_value = "100 to 1000 nM"

[[record]]
item_smiles = "Cc1nn(C)cc1-c1cc(Cl)cc(C2(NC(=O)c3ccccc3CNC(=O)C(=O)NCC#N)CC2)c1"
recorded_metric = "IC50"
data_value = "< 100 nM"

[[record]]
item_smiles = "N#CN1CC(C(=O)NCc2ccccc2C(=O)NC2(c3cccc4ccccc34)CC2)C1"
recorded_metric = "IC50"
data_value = "< 100 nM"

[[record]]
item_smiles = "COc1cccnc1C#CCNC(=O)C(=O)NCc1ccccc1C(=O)NC1(c2cc(F)cc(-c3cn(C)nc3C)c2)CC1"
recorded_metric = "IC50"
data_value = "< 100 nM"

[[record]]
item_smiles = "C#CCNC(=O)C(=O)NCc1ccccc1C(=O)NC1(c2ccc(F)c(-c3cnn(C4CC4)c3)c2)CC1"
recorded_metric = "IC50"
data_value = "< 100 nM"

[[record]]
item_smiles = "CNC(=O)/C=C/CNC(=O)C(=O)NCc1ccccc1C(=O)N[C@H](C)c1cccc2ccccc12"
recorded_metric = "IC50"
data_value = "1000 to 10000 nM"

[[record]]
item_smiles = "CC(C)n1ncnc1C#C[C@H](C)NC(=O)C(=O)NCc1ccccc1C(=O)NC1(c2cc(F)cc(-c3cnn(C4CC4)c3)c2)CC1"
recorded_metric = "IC50"
data_value = "< 100 nM"

[[record]]
item_smiles = "CC(C)(O)CCc1cc(C2(NC(=O)c3ccccc3CNC(=O)C(=O)NCC#N)CC2)c2ccccc2c1"
recorded_metric = "IC50"
data_value = "< 100 nM"

[[record]]
item_smiles = "CN(C(=O)c1cc(Cl)cc(C2(NC(=O)c3ccccc3CNC(=O)C(=O)NCC#Cc3nccs3)CC2)c1)c1ccc(F)cc1"
recorded_metric = "IC50"
data_value = "< 100 nM"

[[record]]
item_smiles = "Cc1nn(C)cc1-c1cc(F)cc(C2(NC(=O)c3ccccc3CNC(=O)C(=O)NCC#N)CC2)c1"
recorded_metric = "IC50"
data_value = "< 100 nM"

[[record]]
item_smiles = "C#CCNC(=O)C(=O)NCc1ccccc1C(=O)NC1(c2cccc3ccccc23)COC1"
recorded_metric = "IC50"
data_value = "> 10000 nM"

[[record]]
item_smiles = "C[C@@H](NC(=O)c1ccccc1CNC(=O)C(=O)NCC#Cc1nccs1)c1cc(F)cc(-c2cnn(C3CC3)c2)c1"
recorded_metric = "IC50"
data_value = "< 100 nM"

[[record]]
item_smiles = "C[C@@H](NC(=O)c1ccccc1CNC(=O)C(=O)NC/C=C/C(=O)N1CC[C@H](C#N)C1)c1cccc2ccccc12"
recorded_metric = "IC50"
data_value = "> 10000 nM"

[[record]]
item_smiles = "Cc1cccnc1C#CCNC(=O)C(=O)NCc1ccccc1C(=O)NC1(c2cc(F)cc(-c3cn(C)nc3C)c2)CC1"
recorded_metric = "IC50"
data_value = "< 100 nM"

